Sourced from patent US8198285B2

pIC50: −log10 of the molar value. Counter-ions that a name gives are not always drawn.
As an illustration, consider measured pIC50 for compounds on human GSK3β enzyme (Homo sapiens, UniProt P49841).
Sequence (P49841 whole entry): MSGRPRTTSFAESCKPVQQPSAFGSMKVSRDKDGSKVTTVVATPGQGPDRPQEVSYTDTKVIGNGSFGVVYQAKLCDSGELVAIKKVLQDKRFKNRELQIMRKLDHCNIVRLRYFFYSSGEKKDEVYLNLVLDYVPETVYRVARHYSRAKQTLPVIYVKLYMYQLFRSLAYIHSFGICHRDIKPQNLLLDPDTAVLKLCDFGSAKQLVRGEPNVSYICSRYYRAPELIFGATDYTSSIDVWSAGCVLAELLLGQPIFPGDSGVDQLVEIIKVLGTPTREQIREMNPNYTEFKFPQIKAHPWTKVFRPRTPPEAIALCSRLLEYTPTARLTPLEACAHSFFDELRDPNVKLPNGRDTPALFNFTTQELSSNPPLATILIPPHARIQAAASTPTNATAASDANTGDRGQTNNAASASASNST
Property name: pIC50

Compound	Reported
COCCCNCCCc1ccc(-c2cnc(N)c(C(=O)Nc3cccnc3)n2)cc1 [Example 1, tri-hydrochloride]	~7.46
COCCNCCCc1ccc(-c2cnc(N)c(C(=O)Nc3cccnc3)n2)cc1 [Example 5, tri-hydrochloride]	~7.68
COCCNCCc1ccc(-c2cnc(N)c(C(=O)Nc3cccnc3)n2)cc1 [Example 7, tri-hydrochloride]	~7.10
